Measured pKd, listed per entry.
- target-under-test: T1, CYNO-TNFR2-His (cynomolgus monkey TNFR2, His tag) (cynomolgus monkey, UniProt A0A2K5VET2 132-366)
- T1 construct: Soluble antigen of the ForteBio assay; also called cTNFR2; not shown: His tag
- T1 sequence: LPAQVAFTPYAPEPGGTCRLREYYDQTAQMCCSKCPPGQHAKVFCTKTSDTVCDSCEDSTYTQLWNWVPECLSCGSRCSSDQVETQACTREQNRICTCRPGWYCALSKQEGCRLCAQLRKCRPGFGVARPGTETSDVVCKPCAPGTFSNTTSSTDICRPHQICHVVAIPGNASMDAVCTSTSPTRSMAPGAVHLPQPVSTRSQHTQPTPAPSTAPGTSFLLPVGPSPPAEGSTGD
- test-summary: BLI (ForteBio), antibody on sensor, 100 nM CYNO-TNFR2-His in solution, 1:1 model
On this scale, pKd is minus log10 of a concentration expressed in M (mol/L).

pKd reported for this binder chimeric antibody 72G8 (antibody, human IgG1, kappa, V domains shown) VH: EVQLQQSGAELARPGASVMLSCKASGYTFTSYWMQWLKQRPGQGLEWIGAIYPGDGDTRYTQKFKGKATLTADKSSSTAYMQLSSLASEDSAVYYCVRDDGLYYAMDYWGQGTSVTVSS VL: QIVLTQSPTIMSASLGERVTMTCTASSSVSSSYLHWYQQKPGSSPKLWIYSTSNLASGVPARFSGSGSGTSYSLTISSMEAEDAATYYCHQYHRSPPTFGGGTKLEIKR : 8.51

pKd reported for this binder positive control antibody OPI (humanized antibody SBT-002e in WO 2017083525) (antibody, V domains shown, also called Benchmark OPI) VH: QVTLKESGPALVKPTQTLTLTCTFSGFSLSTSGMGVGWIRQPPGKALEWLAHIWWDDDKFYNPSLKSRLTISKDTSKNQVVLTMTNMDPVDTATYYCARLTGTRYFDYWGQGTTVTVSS VL: DVQMTQSPSSLSASVGDRVTITCKASQDINKFIAWYQQKPGKAPKLLIHYTSTLQPGIPSRFSGSGSGRDYTFTISSLQPEDIATYYCLQYGNLWTFGGGTKVEIK : 8.94

pKd reported for this binder chimeric antibody 3C4 (antibody, human IgG1, kappa, V domains shown) VH: QVQLQQSGPELVKPGASVTISCKASDYSFTNYYIHWVKQRPGQGLEWIGWIYPGNVITKYHEKFKGKAILTADTSSTTAYMQLNSLTSEDSAVYFCARSRATGYFDYWGQGTTLTVSS VL: DIQMTQTTSSLSASLGDRVTISCRASQDIRNYLNWFQQKPDGTIKLLIYYTSRLHSGVPSRFSGSGSGTDYSLTISNLEQEDMATYFCQQFNTLPWTFGGGTKLEIKR : 8.85

pKd reported for this binder chimeric antibody 69B1 (antibody, human IgG1, kappa, V domains shown) VH: QIQLVQSGPELKKPGETVKISCKASGYTFTDYSMNWVKQAPGKGLKWMGWLNTETGEPIYADDFKGRFVFSLETSASTAYLEINNLNDEDTATYFCAREAIYYGTSYVLDYWGQGTSVTVSS VL: DIVLTQSPASLAVSLGQRATISCRASESVEYYGTNFMQWYQQKPGQPPKLLIYSASNVESGVPARFSGSGSGTDFSLNIHPVEEDDIAVYFCQQSRKDPSTFGEGTNLEIKR : 8.95
